run_description: single oral dose pharmacokinetic study in healthy and NASH subjects
Type: in vivo, human
run_conditions: human, plasma, po, 50 mg, 50 mg single oral dose, Healthy; read-out: Cmax, Geometric Mean
assay_metric: Cmax (ng/mL)
Write the value in ng/mL as a bare number.

Lookup: Using the record for C[C@H](CCCC(C)(C)O)[C@H]1CC[C@H]2[C@@H]3CC=C4C[C@@H](OS(=O)(=O)[O-])CC[C@]4(C)[C@H]3CC[C@]12C.[Na+] [25HC3S sodium, 25-hydroxycholesterol-3-sulfate sodium] , report its Cmax.
Found: 90.9

====

run_description: single oral dose pharmacokinetic study in healthy and NASH subjects
Format: in vivo, human
run_conditions: human, plasma, po, 50 mg, 50 mg single oral dose, Healthy; read-out: Tmax, Mean
assay_metric: Tmax (h)
Write the value in h as a bare number.

Lookup: Using the record for C[C@H](CCCC(C)(C)O)[C@H]1CC[C@H]2[C@@H]3CC=C4C[C@@H](OS(=O)(=O)[O-])CC[C@]4(C)[C@H]3CC[C@]12C.[Na+] [25HC3S sodium, 25-hydroxycholesterol-3-sulfate sodium] , report its Tmax.
Found: 3.01
